assayed.target: MPSK1 (Homo sapiens, UniProt O75716)
Construct: gene STK16; catalytic domain-containing construct
Sequence (O75716 whole entry, the tested form may be a part): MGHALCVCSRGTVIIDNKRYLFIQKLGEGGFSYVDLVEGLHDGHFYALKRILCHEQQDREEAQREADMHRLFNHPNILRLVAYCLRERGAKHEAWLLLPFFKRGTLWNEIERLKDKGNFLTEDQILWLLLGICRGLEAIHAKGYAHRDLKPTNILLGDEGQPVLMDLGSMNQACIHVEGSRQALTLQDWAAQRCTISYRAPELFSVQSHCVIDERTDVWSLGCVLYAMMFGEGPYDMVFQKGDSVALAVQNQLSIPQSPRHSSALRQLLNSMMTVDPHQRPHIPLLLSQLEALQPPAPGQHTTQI
assay.notes: biochemical
Design: Thermal shift assay (DSF, SYPRO Orange), 2 uM kinase domain, mean delta Tm of triplicates versus DMSO
measurement.conditions: read-out: MPSK1
assay.readout: ΔTm at 12.5 µM (°C)
Respond numerically; units are °C and should not be typed.

Return value of ΔTm at 12.5 µM for input O=C(Nc1c[nH]nc1-c1nc2ccc(CN3CCOCC3)cc2[nH]1)NC1CC1 [AT9283] , no commentary.
9.49

Return value of ΔTm at 12.5 µM for input COc1cc2ncnc(Nc3ccc(F)c(Cl)c3)c2cc1NC(=O)/C=C/CN1CCCCC1 [Dacomitinib] , no commentary.
0.97

Return value of ΔTm at 12.5 µM for input C#Cc1cccc(Nc2ncnc3cc4c(cc23)OCCOCCOCCO4)c1 [Icotinib] , no commentary.
0.81

Return value of ΔTm at 12.5 µM for input CNc1nc(-c2ccc3c(N)n[nH]c3c2)cc(N2C[C@@H](C(=O)NC3CCCCC3)CC[C@H]2C)n1 [GSK2334470] , no commentary.
0.883
